All values here come from the NIST ThermoML archive (doi:10.1016/j.tca.2010.09.004).

details: 298.15 K; 101.33 kPa; Liquid; Sing-around technique in a fixed-path interferometer
Numbers after ± are expanded uncertainties.
Task for the reader: assign each of the following molecules its reported speed of sound.

Specify reported speed of sound for the molecule shown: `CCC(C)=O`
1191 ± 1 m/s

Specify reported speed of sound for the molecule shown: `CCCNCCC`
1187.7 ± 1.3 m/s

Specify reported speed of sound for the molecule shown: `CCN(CC)CC`
1111.1 ± 1 m/s

Specify reported speed of sound for the molecule shown: `CCCCNCCCC`
1241.3 ± 1 m/s

====

settings: 293.15 K; 101.33 kPa; Liquid; Sing-around technique in a fixed-path interferometer
Numbers after ± are expanded uncertainties.
Task for the reader: assign each of the following compounds its reported speed of sound.
# output: numeric value plus its unit

Specify reported speed of sound for the compound shown: `CCC(C)=O`
1212.3 ± 1 m/s

Specify reported speed of sound for the compound shown: `CCN(CC)CC`
1132.8 ± 1 m/s

Specify reported speed of sound for the compound shown: `CCCNCCC`
1209.2 ± 1.4 m/s

Specify reported speed of sound for the compound shown: `CCCCNCCCC`
1261.2 ± 1 m/s
